MFI values for the binders below.
# study-system: T1, human IL-23 (IL-23-His-Biotin, Akesobio, 20161209) (human, UniProt Q9NPF7 20-189; P29460 23-328)
# T1 construct: His-tagged and biotinylated; also called human IL23-His-Biotin
# T1 sequence (looked up) 1: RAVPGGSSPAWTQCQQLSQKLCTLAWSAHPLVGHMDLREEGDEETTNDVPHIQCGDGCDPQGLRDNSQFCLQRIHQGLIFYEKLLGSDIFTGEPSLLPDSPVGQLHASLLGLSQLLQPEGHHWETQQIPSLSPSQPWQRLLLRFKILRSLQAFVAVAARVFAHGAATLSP
# T1 sequence (looked up) 2: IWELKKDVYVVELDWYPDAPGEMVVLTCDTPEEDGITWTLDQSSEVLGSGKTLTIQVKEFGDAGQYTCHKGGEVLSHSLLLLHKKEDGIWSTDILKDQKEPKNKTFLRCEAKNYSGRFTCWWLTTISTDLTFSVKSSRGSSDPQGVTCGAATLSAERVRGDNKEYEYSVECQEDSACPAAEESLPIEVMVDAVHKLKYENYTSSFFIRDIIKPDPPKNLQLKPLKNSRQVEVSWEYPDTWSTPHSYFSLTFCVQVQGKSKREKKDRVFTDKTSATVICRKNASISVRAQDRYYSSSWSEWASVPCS
# method-description: FACS competition, IL-23-His-Biotin 2 µg/mL on 293T-IL-12RB1&IL-23R cells, antibody 0.01 µg/mL
Give the value as a plain number.

Some solved entries appear below for comparison.
[
  {
    "binder": "H5L9 (antibody, human IgG1, kappa, V domains shown, Humanized anti-human IL-12/IL-23 p40 antibody; IgG1 (P01857) / kappa (P01834) constant regions) VH: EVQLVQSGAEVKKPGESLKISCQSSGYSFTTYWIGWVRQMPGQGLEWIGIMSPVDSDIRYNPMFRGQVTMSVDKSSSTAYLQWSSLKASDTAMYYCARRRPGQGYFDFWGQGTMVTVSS VL: DIQMTQSPSSLSASVGDRVTITCKASQNVGSWLAWYQQKPGKAPKSLIYSASSRQSGVPSRFSGSGSGTDFTLTISSLQPEDFATYYCQQYDIYPFTFGQGTKLEIKR",
    "MFI": 222
  },
  {
    "binder": "H5L11 (antibody, human IgG1, kappa, V domains shown, IgG1/kappa) VH: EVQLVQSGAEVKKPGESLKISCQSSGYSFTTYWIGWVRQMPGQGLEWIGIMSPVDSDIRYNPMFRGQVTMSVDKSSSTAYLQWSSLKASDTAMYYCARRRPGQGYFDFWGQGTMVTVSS VL: EIVLTQSPATLSASPGERATISCRASQSVSSWLAWYQQKPGQAPRSLIYSASNLQSGIPARFSGSGSGTDFTLTISSLEPEDFAVYYCQQYNIYPYTFGQGTRLEIKR",
    "MFI": 219
  }
]

Switching to the query record.
Note to self: MFI recorded for H5L14 (antibody, human IgG1, kappa, V domains shown, IgG1/kappa) VH: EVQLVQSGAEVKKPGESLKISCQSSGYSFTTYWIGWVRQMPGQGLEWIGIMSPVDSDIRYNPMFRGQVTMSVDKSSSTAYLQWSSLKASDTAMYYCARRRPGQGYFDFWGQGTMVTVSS VL: EIVLTQSPATLSASPGERATISCRASQSVSSWLAWYQQKPGQAPRSLIYAASNLQSGIPARFSGSGSGTDFTLTISSLEPEDFAVYYCQQYNIYPFTFGQGTRLEIKR was 218
